measured target: human cytochrome P450 (CYP) 2C9 (Homo sapiens)
parameter measured: IC50 (µM)

# structure smiles string, measured target, measurement units, reading qualifier, experimental value
measured = [
    ("Cc1cc(CNc2nccc(Nc3cc(C)[nH]n3)n2)on1", "human cytochrome P450 (CYP) 2C9 (Homo sapiens)", "µM", ">", 10),
    ("CCCc1cc(Nc2nc(NCc3cc(C)no3)ncc2Br)n[nH]1", "human cytochrome P450 (CYP) 2C9 (Homo sapiens)", "µM", "=", 3.08),
    ("Cc1cc(CNc2ncc(Cl)c(Nc3cc(C)[nH]n3)n2)on1", "human cytochrome P450 (CYP) 2C9 (Homo sapiens)", "µM", "=", 1.12),
    ("Cc1cc(Nc2nc(NCc3cc(C)no3)ncc2Br)[nH]n1", "human cytochrome P450 (CYP) 2C9 (Homo sapiens)", "µM", ">", 10),
]

###

measured target: human IGF1R (Homo sapiens)
Sequence (P08069 31-1367): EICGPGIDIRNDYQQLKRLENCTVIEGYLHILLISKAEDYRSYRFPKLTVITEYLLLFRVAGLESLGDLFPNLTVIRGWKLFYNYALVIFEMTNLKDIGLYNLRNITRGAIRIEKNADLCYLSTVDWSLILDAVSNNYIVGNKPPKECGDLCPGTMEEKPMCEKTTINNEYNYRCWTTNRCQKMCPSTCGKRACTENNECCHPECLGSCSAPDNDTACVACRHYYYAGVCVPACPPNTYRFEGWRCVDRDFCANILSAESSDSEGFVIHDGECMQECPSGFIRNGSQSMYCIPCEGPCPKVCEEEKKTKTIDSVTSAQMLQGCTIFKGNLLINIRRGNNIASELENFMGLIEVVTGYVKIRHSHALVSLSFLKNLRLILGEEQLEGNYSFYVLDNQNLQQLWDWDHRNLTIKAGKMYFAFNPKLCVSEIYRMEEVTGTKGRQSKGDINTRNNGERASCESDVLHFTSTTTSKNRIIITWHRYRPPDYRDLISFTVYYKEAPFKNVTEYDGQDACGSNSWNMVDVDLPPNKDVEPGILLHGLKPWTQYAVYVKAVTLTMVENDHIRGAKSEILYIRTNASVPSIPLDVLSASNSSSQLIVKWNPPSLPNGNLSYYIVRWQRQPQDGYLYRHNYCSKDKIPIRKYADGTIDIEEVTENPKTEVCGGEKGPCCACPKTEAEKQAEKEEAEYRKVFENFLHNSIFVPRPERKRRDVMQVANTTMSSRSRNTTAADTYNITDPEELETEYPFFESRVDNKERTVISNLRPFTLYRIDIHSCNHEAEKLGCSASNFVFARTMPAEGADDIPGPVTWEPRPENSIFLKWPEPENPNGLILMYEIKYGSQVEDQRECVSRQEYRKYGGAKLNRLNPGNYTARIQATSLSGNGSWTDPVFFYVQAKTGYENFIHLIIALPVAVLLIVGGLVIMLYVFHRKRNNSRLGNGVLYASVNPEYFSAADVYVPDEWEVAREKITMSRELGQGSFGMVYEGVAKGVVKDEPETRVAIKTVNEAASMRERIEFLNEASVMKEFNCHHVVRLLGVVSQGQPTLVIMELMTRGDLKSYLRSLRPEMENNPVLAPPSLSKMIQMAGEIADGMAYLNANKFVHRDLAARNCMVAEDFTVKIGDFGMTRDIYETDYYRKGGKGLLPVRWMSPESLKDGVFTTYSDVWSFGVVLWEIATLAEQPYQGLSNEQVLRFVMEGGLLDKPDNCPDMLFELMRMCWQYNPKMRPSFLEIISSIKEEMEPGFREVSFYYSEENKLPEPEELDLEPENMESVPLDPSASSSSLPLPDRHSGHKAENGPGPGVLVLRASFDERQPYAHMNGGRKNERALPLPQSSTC
protocol text: Inhibition of insulin-like growth factor-1 receptor phosphorylation in R+ cells
measurement context: 30 nM IGF1, read-out: IGF cell class
pIC50: −log10 of the molar value.

# structure smiles string, pIC50
rows = [
    ("Cc1cc(CNc2nccc(Nc3cc(-c4ccco4)[nH]n3)n2)on1", "< 5.00"),
    ("c1cnc(-c2cc(CNc3nccc(Nc4cc(CCc5ccco5)[nH]n4)n3)on2)nc1", "5.00 to 6.00"),
    ("COc1ccc(CCc2cc(Nc3ccnc(NCc4cc(-c5ncccn5)no4)n3)n[nH]2)cc1", "5.00 to 6.00"),
    ("CCOc1ccc(COc2cc(Nc3ccnc(NCc4cc(C)no4)n3)n[nH]2)cc1OC", "< 5.00"),
]

###

measured target: UniProt:P11362
protocol text: Kinase assay (using Caliper technology)
Type: biochemical
measurement context: FGFR1 kinase, Caliper; upper bound of bin; read-out: IC50
Description: To determine inhibition of FGFR activity, kinase assays were conducted using Caliper technology. Kinase activity assays were performed in Greiner 384-well low volume plates, with a total reaction volume of 12ul per well. […] The substrate for each assay was a custom peptide with fluorescent tag (13 amino acids in length) the sequence of which was specific for FGFR1 kinase. Compounds were serially diluted in 5% (v/v) DMSO, before being added to assay plates. […]
pIC50: −log10 of the molar value. Counter-ions that a name gives are not always drawn.

# compound, pIC50
rows = [
    ("COc1ccc(OC)c(CCc2cc(Nc3ccnc(NCc4cc(C)no4)n3)n[nH]2)c1", "> 6.00"),
    ("Cc1cccc(CCc2cc(Nc3ccnc(NCc4cc(C)no4)n3)n[nH]2)c1 [Example 52, hydrochloride]", "> 6.70"),
    ("Cc1cc(CNc2nccc(Nc3cc(CCc4cccc(C(=O)N(C)C)c4)[nH]n3)n2)on1", "> 6.00"),
    ("Cc1cc(CNc2nccc(Nc3cc(CCc4nc(-c5ccccc5)no4)[nH]n3)n2)on1", "> 6.00"),
]

###

measured target: FGFR kinase domain (Homo sapiens, UniProt P11362, C488A/C584S)
Construct: FGFR kinase domain (amino acids 458-765, C488A, C584S) N-terminally fused to a His6-tag; made in house
Sequence (P11362 458-765 C488A/C584S): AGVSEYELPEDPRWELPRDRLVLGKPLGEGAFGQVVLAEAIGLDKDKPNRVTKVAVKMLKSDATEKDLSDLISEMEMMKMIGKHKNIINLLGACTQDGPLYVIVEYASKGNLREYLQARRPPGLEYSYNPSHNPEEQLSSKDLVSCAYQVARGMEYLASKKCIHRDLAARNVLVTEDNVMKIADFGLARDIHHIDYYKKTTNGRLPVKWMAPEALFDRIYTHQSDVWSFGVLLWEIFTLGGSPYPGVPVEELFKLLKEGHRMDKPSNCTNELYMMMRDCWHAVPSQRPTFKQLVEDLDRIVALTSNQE
protocol text: Kinase assay (ELISA) for inhibition of FGFR activity
Format: biochemical
measurement context: stated after the ELISA results table; read-out: IC50

# structure smiles string, measurement units, IC50
records = [
    ("COc1cccc(CCc2cc(Nc3ccnc(NCc4cc(-c5ncccn5)no4)n3)[nH]n2)c1", "nM", 92),
]
